# change in vivo at 0.1 mg/kg annotations
Tested on: ventricular muscle refractory period
Test Description: Influence on ventricular muscle refractory period (ERP)
Format: in vivo, mongrel dog
Measurement Parameters: Canis lupus familiaris, iv; 0.1 mg/kg, i.v.; (W-Y)/Y×100; read-out: ERP (%; extensibility of refractory period)
Where a name gives a salt, the structure may show the parent alone.
Assay Metric: change in vivo at 0.1 mg/kg

Compound: Cn1c(N2CCN(CCOc3ccc([N+](=O)[O-])cc3C(=O)c3ccccc3)CC2)cc(=O)n(C)c1=O [Compound 99]
Target Entity: ventricular muscle refractory period
Observed: 9.8%
--
Compound: Cn1c(NCCNC2CCN(c3ccc([N+](=O)[O-])cc3)CC2)cc(=O)n(C)c1=O [Compound 61, oxalate]
Target Entity: ventricular muscle refractory period
Observed: 8.3%
--
Compound: Cn1c(N2CCN(CC(=O)c3ccc([N+](=O)[O-])cc3)CC2)cc(=O)n(C)c1=O [Compound 42, hydrochloride]
Target Entity: ventricular muscle refractory period
Observed: 4.6%

* * *

Tested on: Purkinje fiber of the right ventricular free wall (myocardial action potential)
Test Description: Influence on myocardial action potential duration time (APD75), isolated right ventricular free wall, microelectrode in Purkinje fiber
Type: cell-based, dog
Measurement Parameters: Canis lupus familiaris, 20 min, 1.0 μg/ml, 20 minutes' incubation, (B-A)/A×100, read-out: APD75 (%)
Counter-ions that a name gives are not always drawn.
Here, each record is paired with measured activation at 1 µg/mL data.

Molecule: CC(=O)c1cc([N+](=O)[O-])ccc1NCCCN1CCN(c2cc(=O)n(C)c(=O)n2C)CC1 [Compound 120, oxalate]
activation at 1 µg/mL: 16%

Molecule: Cn1c(N2CCN(CCOc3ccc([N+](=O)[O-])cc3)CC2)cc(=O)n(C)c1=O [Compound 53, hydrochloride]
activation at 1 µg/mL: 8%

Molecule: Cn1c(N2CCN(CCCOc3ccc([N+](=O)[O-])cc3)CC2)cc(=O)n(C)c1=O [Compound 35, hydrochloride]
activation at 1 µg/mL: 17%

Molecule: Cn1c(N2CCN(CC(O)c3ccc([N+](=O)[O-])cc3)CC2)cc(=O)n(C)c1=O (stereo not shown) [Compound 44, hydrochloride]
activation at 1 µg/mL: 5%

Molecule: CCN(CCCc1ccc([N+](=O)[O-])cc1)CCNc1cc(=O)n(C)c(=O)n1C [Compound 4, hydrochloride]
activation at 1 µg/mL: 11%

Molecule: Cn1c(NCCN(CCO)CCCCc2ccc([N+](=O)[O-])cc2)cc(=O)n(C)c1=O
activation at 1 µg/mL: 18%

Molecule: Cn1c(N2CCN(CCCNc3ccc([N+](=O)[O-])cc3)CC2)cc(=O)n(C)c1=O
activation at 1 µg/mL: 10%

* * *

Test Description: Toxicity test, mortality rate 24 hours after administration
Measurement Parameters: mouse, in vivo, po, 300 mg/kg (p.o.)
Where a name gives a salt, the structure may show the parent alone.
compounds and their reported mortality at 24 h
Assay Metric: mortality at 24 h (%)

Compound: CCN(CCNCCCCc1ccc([N+](=O)[O-])cc1)c1cc(=O)n(C)c(=O)n1C
Observed: 0
//
Compound: C=CCOc1cc([N+](=O)[O-])ccc1OCCCN1CCN(c2cc(=O)n(C)c(=O)n2C)CC1 [Compound 161, hydrochloride]
Observed: 0
//
Compound: Cn1c(N2CCN(c3ccc([N+](=O)[O-])cc3C(=O)c3ccccc3)CC2)cc(=O)n(C)c1=O [Compound 128, oxalate]
Observed: 0
//
Compound: Cn1c(N2CCN(CCCCc3ccc([N+](=O)[O-])cc3)CC2)cc(=O)n(C)c1=O [Compound 34, hydrochloride]
Observed: 100

* * *

Test system: ventricular muscle refractory period
Test Description: Influence on ventricular muscle refractory period (ERP)
Type: in vivo, mongrel dog
Measurement Parameters: Canis lupus familiaris, iv; 0.1 mg/kg, i.v.; (W-Y)/Y×100; read-out: ERP (%; extensibility of refractory period)
Source text: […]
Structures can show the parent of a compound that is named as a salt.
Binary label based on change in vivo at 0.1 mg/kg with cut-off 9%: below gives fulfilled, not below gives not fulfilled.

Compound: Cn1c(N2CCN(CCCOc3ccc([N+](=O)[O-])cc3)CC2)cc(=O)n(C)c1=O [Compound 35, hydrochloride]
Target Entity: ventricular muscle refractory period
Class: fulfilled
--
Compound: Cn1c(NCCN2CCN(c3ccc([N+](=O)[O-])cc3)CC2)cc(=O)n(C)c1=O [Compound 64, oxalate]
Target Entity: ventricular muscle refractory period
Class: not fulfilled
--
Compound: Cn1c(N2CCN(CCCSc3ccc([N+](=O)[O-])cc3)CC2)cc(=O)n(C)c1=O [Compound 51, oxalate]
Target Entity: ventricular muscle refractory period
Class: not fulfilled
--
Compound: CCN(CCNCCCCc1ccc([N+](=O)[O-])cc1)c1cc(=O)n(C)c(=O)n1C
Target Entity: ventricular muscle refractory period
Class: fulfilled
--
Compound: Cn1c(N2CCN(CCc3ccc([N+](=O)[O-])cc3C(=O)c3ccccc3)CC2)cc(=O)n(C)c1=O [Compound 133, oxalate]
Target Entity: ventricular muscle refractory period
Class: fulfilled
--
Compound: Cn1c(N2CCN(CCc3ccccc3[N+](=O)[O-])CC2)cc(=O)n(C)c1=O [Compound 10, oxalate]
Target Entity: ventricular muscle refractory period
Class: fulfilled
--
Compound: COC(=O)c1ccc(OCCCN2CCN(c3cc(=O)n(C)c(=O)n3C)CC2)c([N+](=O)[O-])c1 [Compound 154, oxalate]
Target Entity: ventricular muscle refractory period
Class: fulfilled
--
Compound: Cn1c(N2CCN(CCCNc3ccc([N+](=O)[O-])cc3C(=O)c3ccccc3)CC2)cc(=O)n(C)c1=O [Compound 111, oxalate]
Target Entity: ventricular muscle refractory period
Class: fulfilled
--
Compound: Cn1c(N2CCN(c3ccc([N+](=O)[O-])cc3)CC2)cc(=O)n(C)c1=O
Target Entity: ventricular muscle refractory period
Class: fulfilled
--
Compound: Cn1c(N2CCN(CCc3ccc([N+](=O)[O-])cc3)CC2)cc(=O)n(C)c1=O [Compound 14, hydrochloride]
Target Entity: ventricular muscle refractory period
Class: not fulfilled
--
Compound: Cn1c(N2CCN(CCCc3ccc([N+](=O)[O-])cc3)CC2)cc(=O)n(C)c1=O [Compound 33, oxalate]
Target Entity: ventricular muscle refractory period
Class: not fulfilled
--
Compound: Cn1c(N2CCN(CCCOc3cc([N+](=O)[O-])ccc3O)CC2)cc(=O)n(C)c1=O [Compound 145, hydrochloride]
Target Entity: ventricular muscle refractory period
Class: fulfilled
--
Compound: CCN(CCCc1ccc([N+](=O)[O-])cc1)CCNc1cc(=O)n(C)c(=O)n1C [Compound 4, hydrochloride]
Target Entity: ventricular muscle refractory period
Class: fulfilled
--
Compound: Cn1c(N2CCN(CCCOc3ccc([N+](=O)[O-])cc3N)CC2)cc(=O)n(C)c1=O [Compound 153, oxalate]
Target Entity: ventricular muscle refractory period
Class: fulfilled

* * *

Tested on: ventricular muscle refractory period
Test Description: Influence on ventricular muscle refractory period (ERP)
Assay type: in vivo, mongrel dog
Measurement Parameters: Canis lupus familiaris, iv; 0.1 mg/kg, i.v.; (W-Y)/Y×100; read-out: ERP (%; extensibility of refractory period)
Where a name gives a salt, the structure may show the parent alone.
Assay Metric: change in vivo at 0.1 mg/kg (%)

Molecule: CSc1ccc(OCCCN2CCN(c3cc(=O)n(C)c(=O)n3C)CC2)c([N+](=O)[O-])c1 [Compound 147, hydrochloride]
Assay Metric: change in vivo at 0.1 mg/kg
Observed: 0

Molecule: CN(CCCN1CCN(c2cc(=O)n(C)c(=O)n2C)CC1)c1ccc([N+](=O)[O-])cc1 [Compound 69, oxalate]
Assay Metric: change in vivo at 0.1 mg/kg
Observed: 6.7

Molecule: Cn1c(NCCNCc2ccc([N+](=O)[O-])cc2)cc(=O)n(C)c1=O [Compound 15, oxalate]
Assay Metric: change in vivo at 0.1 mg/kg
Observed: 6.3

Molecule: Cn1c(N2CCN(CCCOc3ccc([N+](=O)[O-])cc3C(=O)c3ccccc3)CC2)cc(=O)n(C)c1=O [Compound 80, oxalate]
Assay Metric: change in vivo at 0.1 mg/kg
Observed: 2.6

* * *

Test system: Purkinje fiber of the right ventricular free wall (myocardial action potential)
Test Description: Influence on myocardial action potential duration time (APD75), isolated right ventricular free wall, microelectrode in Purkinje fiber
Assay type: cell-based, dog
Measurement Parameters: Canis lupus familiaris, 20 min, 3.0 μg/ml, 20 minutes' incubation, (B-A)/A×100, read-out: APD75 (%)
Structures can show the parent of a compound that is named as a salt.
This listing pairs molecules with measured activation at 3 µg/mL.

Molecule: CC(C)NC[C@@H](O)c1ccc(NS(C)(=O)=O)cc1 [d-sotalol, reference compound]
Target Entity: Purkinje fiber of the right ventricular free wall (myocardial action potential)
activation at 3 µg/mL (%): 7.4

Molecule: CSc1ccc(OCCCN2CCN(c3cc(=O)n(C)c(=O)n3C)CC2)c([N+](=O)[O-])c1 [Compound 147, hydrochloride]
Target Entity: Purkinje fiber of the right ventricular free wall (myocardial action potential)
activation at 3 µg/mL (%): 18

Molecule: Cn1c(NCCN2CCN(c3ccc([N+](=O)[O-])cc3)CC2)cc(=O)n(C)c1=O [Compound 64, oxalate]
Target Entity: Purkinje fiber of the right ventricular free wall (myocardial action potential)
activation at 3 µg/mL (%): 32

Molecule: CC(=O)c1ccc(OCCN2CCN(c3cc(=O)n(C)c(=O)n3C)CC2)c([N+](=O)[O-])c1
Target Entity: Purkinje fiber of the right ventricular free wall (myocardial action potential)
activation at 3 µg/mL (%): 20

Molecule: Cn1c(N2CCN(CCCNc3ccc([N+](=O)[O-])cc3)CC2)cc(=O)n(C)c1=O
Target Entity: Purkinje fiber of the right ventricular free wall (myocardial action potential)
activation at 3 µg/mL (%): 18

Molecule: Cn1c(N2CCN(CCCOc3ccc([N+](=O)[O-])cc3O)CC2)cc(=O)n(C)c1=O [Compound 162, hydrochloride]
Target Entity: Purkinje fiber of the right ventricular free wall (myocardial action potential)
activation at 3 µg/mL (%): 41

Molecule: Cn1c(N2CCN(CCCCOc3ccc([N+](=O)[O-])cc3)CC2)cc(=O)n(C)c1=O [Compound 54, hydrochloride]
Target Entity: Purkinje fiber of the right ventricular free wall (myocardial action potential)
activation at 3 µg/mL (%): 15

Molecule: Cn1c(N2CCN(CCCOc3ccc([N+](=O)[O-])cc3)CC2)cc(=O)n(C)c1=O [Compound 35, hydrochloride]
Target Entity: Purkinje fiber of the right ventricular free wall (myocardial action potential)
activation at 3 µg/mL (%): 22

Molecule: Cn1c(N2CCN(CCCOc3ccc([N+](=O)[O-])cc3C(=O)c3ccccc3Cl)CC2)cc(=O)n(C)c1=O
Target Entity: Purkinje fiber of the right ventricular free wall (myocardial action potential)
activation at 3 µg/mL (%): 23

Molecule: CCOC(=O)CN(CCCc1ccc([N+](=O)[O-])cc1)CCNc1cc(=O)n(C)c(=O)n1C [Compound 175, oxalate]
Target Entity: Purkinje fiber of the right ventricular free wall (myocardial action potential)
activation at 3 µg/mL (%): 16

Molecule: Cn1c(N2CCN(CCCOc3ccc(C(=O)c4ccccc4)cc3[N+](=O)[O-])CC2)cc(=O)n(C)c1=O [Compound 78, oxalate]
Target Entity: Purkinje fiber of the right ventricular free wall (myocardial action potential)
activation at 3 µg/mL (%): 42

Molecule: Cn1c(N2CCN(CCCOc3ccc(Cl)cc3[N+](=O)[O-])CC2)cc(=O)n(C)c1=O [Compound 140, hydrochloride]
Target Entity: Purkinje fiber of the right ventricular free wall (myocardial action potential)
activation at 3 µg/mL (%): 17

Molecule: C=CCOc1cc([N+](=O)[O-])ccc1OCCCN1CCN(c2cc(=O)n(C)c(=O)n2C)CC1 [Compound 161, hydrochloride]
Target Entity: Purkinje fiber of the right ventricular free wall (myocardial action potential)
activation at 3 µg/mL (%): 39

Molecule: Cn1c(N2CCN(CCCOc3cccc([N+](=O)[O-])c3)CC2)cc(=O)n(C)c1=O [Compound 38, hydrochloride]
Target Entity: Purkinje fiber of the right ventricular free wall (myocardial action potential)
activation at 3 µg/mL (%): 34
